# MEASURED_TARGET: Voltage-gated inwardly rectifying potassium channel KCNH2 (Homo sapiens, UniProt Q12809)
# Sequence (Q12809 whole entry): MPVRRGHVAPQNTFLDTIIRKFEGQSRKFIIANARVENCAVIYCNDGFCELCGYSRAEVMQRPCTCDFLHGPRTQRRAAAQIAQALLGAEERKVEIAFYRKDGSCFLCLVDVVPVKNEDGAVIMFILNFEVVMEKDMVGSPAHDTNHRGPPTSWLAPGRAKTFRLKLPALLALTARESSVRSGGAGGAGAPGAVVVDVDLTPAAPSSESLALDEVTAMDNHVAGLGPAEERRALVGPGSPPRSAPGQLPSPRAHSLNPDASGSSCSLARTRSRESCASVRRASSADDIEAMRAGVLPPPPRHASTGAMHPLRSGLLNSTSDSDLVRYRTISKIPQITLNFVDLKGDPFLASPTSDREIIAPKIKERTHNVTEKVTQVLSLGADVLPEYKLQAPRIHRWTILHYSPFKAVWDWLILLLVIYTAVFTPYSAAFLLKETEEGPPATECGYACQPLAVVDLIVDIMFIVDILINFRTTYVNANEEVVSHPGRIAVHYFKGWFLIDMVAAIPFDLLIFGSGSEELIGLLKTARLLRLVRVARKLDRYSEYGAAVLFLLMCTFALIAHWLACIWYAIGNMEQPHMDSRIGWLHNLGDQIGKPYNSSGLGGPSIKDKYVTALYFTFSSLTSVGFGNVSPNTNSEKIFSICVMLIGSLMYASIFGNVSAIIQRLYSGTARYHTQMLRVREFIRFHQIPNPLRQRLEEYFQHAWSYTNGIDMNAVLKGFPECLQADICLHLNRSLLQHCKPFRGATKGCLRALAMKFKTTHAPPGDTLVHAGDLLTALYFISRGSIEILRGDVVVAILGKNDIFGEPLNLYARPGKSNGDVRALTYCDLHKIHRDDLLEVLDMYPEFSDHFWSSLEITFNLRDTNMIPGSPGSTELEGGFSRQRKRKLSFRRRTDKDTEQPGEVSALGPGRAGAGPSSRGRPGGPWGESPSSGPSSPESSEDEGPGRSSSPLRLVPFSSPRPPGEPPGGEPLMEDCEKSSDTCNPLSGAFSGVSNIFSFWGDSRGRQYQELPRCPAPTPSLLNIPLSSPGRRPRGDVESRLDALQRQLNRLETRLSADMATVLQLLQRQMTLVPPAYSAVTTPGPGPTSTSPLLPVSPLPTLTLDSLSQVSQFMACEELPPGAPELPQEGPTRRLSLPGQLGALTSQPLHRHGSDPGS
ATTRIBUTE_MEASURED: IC50 (µM)
Give bare numbers, in µM.

{"columns": ["SMILES_REPRESENTATION", "MEASURED_TARGET", "UOM", "IC50"],
 "data": [
  ["O=C(c1ccc(C[C@@H]2CC[C@H]([C@H](O)c3ccccc3)N2)cc1)N1CCN(Cc2nnn(CC3CC3)n2)CC1", "Voltage-gated inwardly rectifying potassium channel KCNH2 (Homo sapiens, UniProt Q12809)", "µM", 39.4]
]}

Prompt: Which IC50 value is on record for `O=C(c1ccc(C[C@@H]2CC[C@H]([C@H](O)c3ccccc3)N2)cc1)N1CCN(Cc2nnn(CC(F)(F)F)n2)CC1` ?
Completion: 29.9
